# PROCEDURE DETAILS: growth inhibition of WT strain, primary screen, mitochondrial fusion inhibitor project, WT and mutant strains, chemical genetic (AID 1362)
# CONDITION SET: mitochondrial fusion phenotypic screen, WT strain, growth inhibition; at 10 µM; stronger effect = higher value
Among all 190,000 compounds or so, about 4,000 (2.1%) were called active. What follows is part of a selection rich in actives, with near analogues and random picks from the rest.
Quick rule for you: inhibition at 10% or higher means YES, lower means NO.

Some entries whose results are on file:
Cc1nc(N2CCN(c3ccccn3)CC2)c2c(C)c(C(=O)Nc3ccc(F)cc3)sc2n1 ... YES
O=C(/C=C/c1ccc(F)cc1)NCCNC(=O)/C=C/c1ccc(F)cc1 ... NO
CCCCc1nc(NCCN)c(C#N)c2c1CSC(C)(C)C2 ... YES

Task: Kindly determine if inhibition recorded for CC(O)CNCCOc1cccc(Oc2ccccc2)c1 (stereo unspecified) is above or exactly 10%.
Output: NO

Task: Try the compound "O=C1COc2ccc(NC(=O)N3CCN(c4ccc(F)cc4)CC3)cc2N1"
Output: YES

Task: Try the compound "Cc1ccc(OCC(=O)N/N=C\c2ccco2)c(C)c1"
Output: NO

Task: Try the compound "Cc1ccc2cc(C#N)c(NCCNC(=S)NCCCN3CCOCC3)nc2c1"
Output: YES

Task: Try the compound "COCCN(C(=O)c1ccccc1F)c1c(N)n(Cc2ccccc2)c(=O)[nH]c1=O"
Output: NO

Task: Try the compound "C/C(=N\NC(=S)NC1CCCCC1)c1ccc(C)o1"
Output: YES

Task: Try the compound "O=C(Nc1ccc(F)cc1)N1CCN(c2ccc(F)cc2)CC1"
Output: NO

Task: Try the compound "Cc1ccc(OCC(=O)N/N=C/c2ccncc2)cc1"
Output: NO

Task: Try the compound "CCN(CC)CCNC(=O)c1ccc(NS(=O)(=O)c2ccc3c(c2)OCCO3)cc1"
Output: NO

Task: Try the compound "COCCCNC(=S)NCCNc1nc2cc(C)c(C)cc2cc1C#N"
Output: NO

Task: Try the compound "CCOc1cc(NC(=O)CCl)c(OCC)cc1NC(C)=O"
Output: NO

Task: Try the compound "Cc1cc(C)cc(NC(=S)NCc2ccc(F)cc2)c1"
Output: YES

Task: Try the compound "N#C/C(=C(\O)C(F)(F)F)c1nnc2n1CCCCC2"
Output: YES

Task: Try the compound CN(C)c1ccc(/C=N/NC(=O)C(O)c2ccc(Br)cc2)cc1 (stereo unspecified)
Output: NO

Task: Try the compound "Cc1nc(N2CCC(C)CC2)c2c(C)c(C(=O)Nc3cc(F)ccc3C)sc2n1"
Output: YES

Task: Try the compound "Cc1ccc(NC(=S)N(CCN2CCCCC2)Cc2ccco2)cc1C"
Output: NO

Task: Try the compound "C/C(=N\NC(=S)NCc1ccccc1)c1ccc(Cl)cc1"
Output: YES

Task: Try the compound "COc1cccc(N2CCN(C(=O)Nc3ccc4c(c3)NC(=O)CO4)CC2)c1"
Output: YES

----------
# PROCEDURE DETAILS: growth inhibition of WT strain, primary screen, mitochondrial fusion inhibitor project, WT and mutant strains, chemical genetic (AID 1362)
# CONDITION SET: mitochondrial fusion phenotypic screen, mutant strain inhibition; at 10 µM
Hit rate of the full screen: of about 190,000 compounds, about 4,000 (2.1%) were called active. Only a selection was taken, and actives are over-represented in it overall.
PROPERTY LABEL: inhibition (%)
One number for each entry, in %.

CC1(c2ccccc2)CC(C)(C)N(C(=O)c2cc([N+](=O)[O-])cc([N+](=O)[O-])c2)c2ccccc21 (centres undefined) ... 35.9

Please give inhibition, item by item, for the list that follows.
1. Cc1ccc(N(CC(=O)Nc2cccc(N(C)S(C)(=O)=O)c2)S(C)(=O)=O)cc1
2. O=C(Nc1ccc(Cl)cc1)c1ccsn1
3. CCN(CC)CCNc1nc(-c2ccc(OC(F)F)cc2)c(C)s1
4. OCCCC1CCCCN1Cc1nc(Cc2ccccc2Cl)no1 (centres undefined)
5. CC1CCN(C(=S)c2cccc([N+](=O)[O-])c2)CC1
6. CC(C)(C)NC(=O)NC(=O)COC(=O)Cc1c(F)cccc1Cl
7. CCN(C(=O)CN1CCN(Cc2ccccc2)CC1)c1c(N)n(Cc2ccccc2)c(=O)[nH]c1=O
8. CS(=O)(=O)n1nc(-c2ccco2)nc1N

Output:
[-23, 28, -3.63, -5.21, 23, 1.6, 11.9, -16.1]

Please give inhibition, item by item, for the list that follows.
1. Cc1nn(-c2ccccc2)c(Cl)c1/C=C/C(=O)c1ccc(O)cc1
2. O=C(Nc1ccccc1)c1nnsc1S(=O)(=O)c1ccc(Cl)cc1
3. Cc1cc(C)cc(OCC(=O)Nc2ccc(S(=O)(=O)Nc3ccccn3)cc2)c1
4. Cc1ccc(C2CC(c3cccc(NS(C)(=O)=O)c3)=NN2S(C)(=O)=O)cc1 (centres undefined)

Output:
3.09
97.8
-7.44
6.73

----------
# PROCEDURE DETAILS: growth inhibition of WT strain, primary screen, mitochondrial fusion inhibitor project, WT and mutant strains, chemical genetic (AID 1362)
# CONDITION SET: mitochondrial fusion phenotypic screen, WT strain, growth inhibition; at 10 µM; stronger effect = higher value
The campaign covered roughly 190,000 compounds. About 4,000 (2.1%) were called active. This is one part of a sample in which actives are shown more often than they occur.
PROPERTY LABEL: inhibition (%)
Answers are plain numbers, in %.

Worked examples, 10 compounds total:
CCC1(C)Cc2c(sc3[nH]c(=S)n(Cc4ccccc4)c(=O)c23)CO1 (centres undefined) ... 71
O=C(C1CC1)N1CCN=C1SCc1ccc(Cl)cc1 ... 22.2
COc1ccc(N2CCN(C(=O)COc3ccc4c(C)cc(=O)oc4c3)CC2)cc1 ... -1.11
Cc1ccc(NCc2n[nH]c(=S)n2-c2ccccc2)cc1Cl ... -7.14
O=C(c1ccc2c(c1)OCO2)N1CCN(C(=O)c2ccco2)CC1 ... -13.2
C/C(=N/Nc1ccc(Cl)cc1)c1cnnc(-c2ccccc2)n1 ... 9.51
COc1cc(C)c(S(=O)(=O)N2CCOCC2)c(C)c1C ... -12.4
COc1ccc(/C=C/C(=O)N2CCCC2)cc1OC ... -13.6
CC(C)c1ccc(Nc2nnc(SCC(=O)c3nnc(-c4ccccc4)o3)s2)cc1 ... 70.5
COc1cccc(/C=N/Nc2cc(C)nc(-c3ccccc3O)n2)c1O ... 51.6

Please give inhibition, item by item, for the list that follows.
1. c1ccc(-c2cn3cccnc3n2)cc1
2. Cn1c(N)c(C(=O)COC(=O)c2ccccc2NCc2ccco2)c(=O)n(C)c1=O
3. O=C(Nc1ccc(NC(=O)c2ccco2)c(Cl)c1)c1cccc([N+](=O)[O-])c1
4. Oc1cccc(C2c3[nH]c4ccccc4c3CCN2Cc2cnn(-c3ccccc3)c2)c1 (centres undefined)

Output:
7.76
12.2
2.21
59.9

Please give inhibition, item by item, for the list that follows.
1. COc1cccc(-c2nc3cc(C)ccc3o2)c1
2. COc1cccc(C2c3[nH]c4ccccc4c3CCN2Cc2cccc(C)n2)c1 (centres undefined)

Output:
1. 26.9
2. 40.2

Please give inhibition, item by item, for the list that follows.
1. CCn1c(=S)[nH]c2sc3c(c2c1=O)CCCCC3
2. CCOC(=O)c1c(CN(C)C)n(-c2ccccc2)c2cc(Br)c(O)cc12
3. Clc1ccc(-c2csc(-c3ccncc3)n2)cc1
4. O=C(CSc1nnc(Nc2ccccc2)s1)Nc1cccnc1Cl
5. COc1ccc(NC(=O)C(Br)C(C)C)cc1 (centres undefined)

Output:
1: 44.5; 2: 9.54; 3: 25.2; 4: -3.41; 5: -7.51

Please give inhibition, item by item, for the list that follows.
1. c1ccc(-c2cn3c(n2)CCc2ccc4cccnc4c2-3)cc1
2. Cc1ccc(-c2csc(NNC(=O)c3ccccc3)n2)cc1
3. CCc1nc2ccccc2c(C(=O)NCc2ccc(OC)cc2)c1C
4. CCOC(=O)c1[nH]ncc1CN1CCCC(C(=O)c2ccc(OC)cc2C)C1 (centres undefined)
5. COc1ccccc1/C=N\Nc1cc(C)nc(-n2nc(C)cc2C)n1
6. COc1c(F)c(F)c(C(=O)O)c(Nc2ccccc2C)c1F
7. O=C1Nc2ccc([N+](=O)[O-])cc2C1=Nc1cccc(CO)c1
8. CCCc1cc(-c2nc(-c3ccc(C)cc3)cs2)ccn1

Output:
1. 67.5
2. 9.24
3. -7.63
4. 3.7
5. 69.1
6. 74.2
7. 0.18
8. 77.9

----------
# PROCEDURE DETAILS: growth inhibition of WT strain, primary screen, mitochondrial fusion inhibitor project, WT and mutant strains, chemical genetic (AID 1362)
# CONDITION SET: mitochondrial fusion phenotypic screen, mutant strain inhibition; at 10 µM
About 4,000 (2.1%) of roughly 190,000 compounds were called active. Many of the other results were omitted from the sample, so actives are more common in it than they were.
PROPERTY LABEL: inhibition (%)
One number for each entry, in %.

FC(F)(F)COc1nc(N2CCCCC2)nc(N2CCNCC2)n1 ... 2.8

Please give inhibition, item by item, for the list that follows.
1. O=C(Nc1ncccn1)c1cccs1
2. COc1ccc(NC(=O)c2ccccc2CC[N+](=O)[O-])cc1
3. COc1ccc(N2CCN(CCNC(=O)c3nnc(Cc4c(F)cccc4Cl)o3)CC2)cc1
4. O=C(NC1CC1)C1CCCN(C(=O)NC2CCCCC2)C1 (configuration not stated)
5. Cc1cccc(NC(=O)c2nnn(-c3cccc(C(F)(F)F)c3)c2N)c1
6. NC(=O)c1sc2nc3c(c(-c4ccccc4)c2c1N)CCC3
7. CSC1=N/C(=C\c2ccc3c(c2)OCO3)C(=O)S1
8. COc1ccc(N2CCN(CCNC(=O)CCN3C(=O)COc4ccccc43)CC2)cc1

Output:
[28.9, 1.42, -0.13, -6.42, -7.16, -18.6, -0.28, 42.7]

Please give inhibition, item by item, for the list that follows.
1. Cc1nn(CC(=O)NCc2ccccn2)c(C)c1[N+](=O)[O-]
2. CN(C)S(=O)(=O)c1cccc(NC(=O)COC(=O)/C=C/c2cccs2)c1
3. Cc1ccccc1-c1n[nH]c(=S)n1C
4. Cc1cccc(NC(=S)N2CCCC(c3nc4ccccc4[nH]3)C2)c1 (configuration not stated)
5. O=C(NCC1COc2ccccc2O1)C1(c2ccccc2)CCCC1 (configuration not stated)
6. COc1ccc(C2CC(c3cccs3)=NN2C(=O)CSc2nnc(N)s2)cc1OC (configuration not stated)
7. c1ccc(-c2cc3c(NCC4COc5ccccc5O4)ncnc3s2)cc1 (configuration not stated)
8. COc1ccc(CCN=C2SCC(=O)N2Cc2ccccc2)cc1OC

Output:
[4.36, -0.76, 4.36, 0.82, 3.88, -5.34, 45.9, -8.9]
